The following molecules are shown together with reported cytotoxicity at 10 µM values.
- test name: Toxicity liver stage against HepG2, at 10uM
- Type: cell-based
- Parameters: test concentration 10 uM, cell line HepG2-A16-CD81EGFP
- measurement context: human, HepG2-A16-CD81EGFP cells; read-out: INHIBITION
Lab book: enter the figure in %, no units written.

Examples with answers:
molecule	unit descriptor	cytotoxicity at 10 µM
COc1ccc2nc(NC(=O)c3c(C(=O)O)cnn3C)sc2c1	%	7.19
CN(Cc1ccncc1)C1CC2(CCN(c3ncccn3)CC2)C1	%	13.1
Cc1cnn(C2CN(Cc3nc(-c4cccnc4)no3)C2)c1	%	3.03
Cc1nc(NC(=O)N2CCCC(C(F)(F)F)C2)nn1C (stereo unspecified)	%	9.56
Cn1ccc(C(=O)N2C[C@@H]3OCCN(c4ncccn4)[C@@H]3C2)n1	%	5.7

Note: attention shifts to another entry.
INPUT: I am curious: what cytotoxicity at 10 µM value has been reported for Cc1noc(CN2CCOC(CN(C)C)C2)n1 (stereo unspecified) ?
OUTPUT: -6.61
